- MEASUREMENT TARGET: UniProt P42574
- Sequence (P42574 29-175 limits assumed): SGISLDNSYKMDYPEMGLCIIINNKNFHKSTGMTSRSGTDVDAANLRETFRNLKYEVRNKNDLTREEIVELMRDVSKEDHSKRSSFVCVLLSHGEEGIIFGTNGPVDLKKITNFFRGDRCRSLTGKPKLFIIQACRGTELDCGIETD
- Sequence (P42574 176-277 limits assumed): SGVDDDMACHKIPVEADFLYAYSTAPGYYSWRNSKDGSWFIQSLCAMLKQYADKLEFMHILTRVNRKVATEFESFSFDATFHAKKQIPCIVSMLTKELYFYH
Residues, ends and D or L forms follow the SMILES beside them. *: point of attachment. Cbz = O=C(OCc1ccccc1)*; CH2F = FC*
PROPERTY MEASURED: IC50 (µM)

>>> experimental_value("COC(=O)C[C@H](NC(=O)[C@H](C)NC(=O)[C@@H](NC(=O)OCc1ccccc1)C(C)C)C(=O)CF [Z-VAD-FMK] (Cbz-Val-Ala-Asp(OMe)-CH2F)")
0.1
